molecular target: TLR8 (Homo sapiens); construct: Human peripheral blood mononuclear cells (PBMCs) consist of lymphocytes, monocytes and dendritic cells that express TLR7, TLR8 and TLR9; endogenous in cells; experiment: TLR8 human PBMC cell-based assay (antagonist, Compound A stimulated cytokine release); details: human PBMCs; TLR8 agonist Compound A 800 nM, 6 hours; cytokines (TNFa and IL 12p40) in supernatant; read-out: TLR-8 EC50
pEC50: −log10 of the molar value.
Classify by measured pEC50: rule met if it is equal to or exceeds 8, rule not met if it is smaller.

molecule	discrete.label
Cc1cc(-c2[nH]c3cc(C(=O)N4CC[C@@H](N)C4)sc3c2C(C)C)cc(C)n1	rule not met

Let's switch to this molecule now.
[in] Could you tell me if the measured pEC50 of Cc1cc(-c2[nH]c3cc(C(=O)N4C[C@@H](C)NC[C@@H]4C)sc3c2C(C)C)cn2ncnc12 reaches 8 or more?
[out] rule met

* * *

biological target: TLR7 (Homo sapiens); construct: Human peripheral blood mononuclear cells (PBMCs) consist of lymphocytes, monocytes and dendritic cells that express TLR7, TLR8 and TLR9; endogenous in cells; host or cells: cryopreserved human PBMCs from healthy donors; experiment: TLR7 human PBMC cell-based assay (antagonist, GS-986 stimulated cytokine release); settings: human PBMCs; TLR7 agonist GS-986 400 nM, 6 hours; cytokines (IL-6 and IFNα) in supernatant; read-out: TLR-7 EC50
observation.type: EC50 (nM)
Please reply with the bare figure in nM and do not write the unit itself.

Use the examples below as a reference point.
compound	subject.of.test	observed
Cc1cc(-c2[nH]c3cc(C4CCC5(CCN(CC(N)=O)C5)C4)sc3c2C(C)C)cn2ncnc12 (centres unmarked)	TLR7 (Homo sapiens)	2.89
Cc1cc(-c2[nH]c3cc(C(=O)N(C)C4CCNCC4(C)C)sc3c2C(C)C)cc(C)n1 (centres unmarked)	TLR7 (Homo sapiens)	10.3
Cc1cc(-c2[nH]c3cc(-c4nc5ccc(N6CCNCC6)cc5n4C)sc3c2C(C)C)cn2ncnc12	TLR7 (Homo sapiens)	2.8
Cc1cc(-c2[nH]c3cc(C(=O)N(C)[C@@H]4CCCNC4)sc3c2C(C)C)cn2ncnc12	TLR7 (Homo sapiens)	2.4
Cc1cc(-c2[nH]c3cc(C(=O)N4CCN(CCO)CC4)sc3c2C(C)C)cn2ncnc12	TLR7 (Homo sapiens)	24.4
Cc1cc(-c2[nH]c3cc(C(=O)N4CCNC[C@H]4c4ccccc4)sc3c2C(C)C)cn2ncnc12	TLR7 (Homo sapiens)	16.2

Reported EC50 for Cc1cc(-c2[nH]c3cc(C(=O)N4CCC5CCNC5C4)sc3c2C(C)C)cn2ncnc12 (centres unmarked) was 1

Reported EC50 for Cc1cc(-c2[nH]c3cc(C4=NC5(CCNCC5)CO4)sc3c2C(C)C)cn2ncnc12 was 0.2

* * *

Biological target: TLR8 (Homo sapiens)
Construct: Human peripheral blood mononuclear cells (PBMCs) consist of lymphocytes, monocytes and dendritic cells that express TLR7, TLR8 and TLR9; endogenous in cells
Sequence (Q9NR97 27-1041): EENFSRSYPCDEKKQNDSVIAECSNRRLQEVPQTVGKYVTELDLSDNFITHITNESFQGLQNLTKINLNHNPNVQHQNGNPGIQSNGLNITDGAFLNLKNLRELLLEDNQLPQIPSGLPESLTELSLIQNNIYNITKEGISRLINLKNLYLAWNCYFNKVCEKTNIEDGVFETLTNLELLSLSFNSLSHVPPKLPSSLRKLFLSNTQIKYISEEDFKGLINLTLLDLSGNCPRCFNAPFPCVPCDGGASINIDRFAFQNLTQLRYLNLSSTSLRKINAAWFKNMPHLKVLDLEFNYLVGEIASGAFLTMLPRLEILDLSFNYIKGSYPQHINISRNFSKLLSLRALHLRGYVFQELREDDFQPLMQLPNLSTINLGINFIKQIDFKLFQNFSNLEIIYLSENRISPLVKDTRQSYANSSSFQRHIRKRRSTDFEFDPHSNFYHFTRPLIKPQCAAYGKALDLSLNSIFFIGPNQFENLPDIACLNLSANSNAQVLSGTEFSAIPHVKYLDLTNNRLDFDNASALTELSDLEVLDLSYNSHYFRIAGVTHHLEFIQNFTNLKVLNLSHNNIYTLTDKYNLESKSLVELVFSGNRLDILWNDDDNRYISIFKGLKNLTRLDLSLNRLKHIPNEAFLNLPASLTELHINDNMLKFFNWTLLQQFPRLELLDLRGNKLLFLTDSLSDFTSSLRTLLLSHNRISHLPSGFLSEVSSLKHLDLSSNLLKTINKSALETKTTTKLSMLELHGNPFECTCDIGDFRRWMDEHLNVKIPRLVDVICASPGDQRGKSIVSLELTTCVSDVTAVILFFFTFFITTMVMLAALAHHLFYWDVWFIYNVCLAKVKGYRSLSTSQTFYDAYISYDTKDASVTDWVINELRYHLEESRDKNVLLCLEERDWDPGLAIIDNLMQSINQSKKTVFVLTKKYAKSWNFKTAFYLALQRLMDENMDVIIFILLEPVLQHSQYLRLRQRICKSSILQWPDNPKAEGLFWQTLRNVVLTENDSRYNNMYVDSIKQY
Assay: TLR8 human PBMC cell-based assay (antagonist, Compound A stimulated cytokine release)
Conditions: human PBMCs; TLR8 agonist Compound A 800 nM, 6 hours; cytokines (TNFa and IL 12p40) in supernatant; read-out: TLR-8 EC50
Below, each entry is listed with its recorded pEC50.
Here pEC50 is given on a logarithmic scale as minus log10 of the concentration in mol/L.

compound	observation.type	observed
Cc1cc(-c2[nH]c3cc(C4CCN(C(=O)[C@H]5CCCN5C)CC4)sc3c2C(C)C)cn2ncnc12	pEC50	8.28

Fill in: TLR8 (Homo sapiens) pEC50 for Cc1cc(-c2[nH]c3cc(C4CCN(C(=O)[C@H]5CCN(C)C5)CC4)sc3c2C(C)C)cn2ncnc12 = 8.05

Fill in: TLR8 (Homo sapiens) pEC50 for Cc1cc(-c2[nH]c3cc(C(=O)N(CCN(C)C)C4CCCC4)sc3c2C(C)C)cn2ncnc12 = 7.76

* * *

Biological target: TLR7 (Homo sapiens)
Construct: Human peripheral blood mononuclear cells (PBMCs) consist of lymphocytes, monocytes and dendritic cells that express TLR7, TLR8 and TLR9; endogenous in cells
Sequence (Q9NYK1 27-1049): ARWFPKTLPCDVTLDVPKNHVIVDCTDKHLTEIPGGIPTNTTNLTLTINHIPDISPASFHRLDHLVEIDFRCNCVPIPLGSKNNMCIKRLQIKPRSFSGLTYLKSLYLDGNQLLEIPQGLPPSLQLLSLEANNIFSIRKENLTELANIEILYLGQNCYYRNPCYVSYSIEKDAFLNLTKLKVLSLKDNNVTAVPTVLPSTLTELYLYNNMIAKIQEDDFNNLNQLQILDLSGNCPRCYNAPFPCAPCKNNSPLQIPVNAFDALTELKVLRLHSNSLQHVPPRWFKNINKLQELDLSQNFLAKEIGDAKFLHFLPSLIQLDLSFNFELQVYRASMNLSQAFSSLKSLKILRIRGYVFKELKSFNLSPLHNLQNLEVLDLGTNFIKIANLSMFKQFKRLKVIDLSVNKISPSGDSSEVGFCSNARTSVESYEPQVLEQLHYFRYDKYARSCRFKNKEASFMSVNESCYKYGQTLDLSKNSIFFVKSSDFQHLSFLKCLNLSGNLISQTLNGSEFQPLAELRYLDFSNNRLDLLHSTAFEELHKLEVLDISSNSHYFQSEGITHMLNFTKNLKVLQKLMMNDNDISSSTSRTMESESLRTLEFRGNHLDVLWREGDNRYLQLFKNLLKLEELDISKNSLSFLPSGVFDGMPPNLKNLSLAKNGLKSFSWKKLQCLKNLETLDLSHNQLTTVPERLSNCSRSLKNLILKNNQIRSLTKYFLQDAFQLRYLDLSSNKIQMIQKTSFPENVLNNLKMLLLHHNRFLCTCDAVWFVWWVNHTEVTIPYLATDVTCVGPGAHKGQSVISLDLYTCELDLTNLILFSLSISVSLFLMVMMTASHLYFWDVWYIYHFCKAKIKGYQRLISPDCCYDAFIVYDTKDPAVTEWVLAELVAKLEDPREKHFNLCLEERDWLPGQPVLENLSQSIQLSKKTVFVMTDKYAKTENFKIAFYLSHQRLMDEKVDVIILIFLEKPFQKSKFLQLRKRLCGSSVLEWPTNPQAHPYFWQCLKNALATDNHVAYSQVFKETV
Assay: TLR7 human PBMC cell-based assay (antagonist, GS-986 stimulated cytokine release)
Details: human PBMCs; TLR7 agonist GS-986 400 nM, 6 hours; cytokines (IL-6 and IFNα) in supernatant; read-out: TLR-7 EC50
observation.type: pEC50
Here pEC50 is given on a logarithmic scale as minus log10 of the concentration in mol/L.

Use the examples below as a reference point.
compound	pEC50
Cc1cc(-c2[nH]c3cc(-c4cnc5c(c4)CNCC5)sc3c2C(C)C)cn2ncnc12 [Example 213]	9.10
Cc1cc(-c2[nH]c3cc(-c4ccc(N5CCNCC5)nc4)sc3c2C(C)C)cn2ncnc12 [Example 210]	9.30
Cc1cc(-c2[nH]c3cc(C4CCC(N5CCC(F)C5)CC4)sc3c2C(C)C)cn2ncnc12 (stereo not shown) [Example 256]	9.70
Cc1c(-c2[nH]c3cc(-c4ccc(N5CCNCC5)cc4)sc3c2C(C)C)cn2ncnc2c1C [Example 231]	8.77
Cc1c(-c2[nH]c3cc(C(=O)N(C)C4CCN(CCO)CC4)sc3c2C(C)C)cn2ncnc2c1C [Example 192]	8.92

Reported pEC50 for Cc1cc(-c2[nH]c3cc(C(=O)N(C)[C@@H]4CCNC4)sc3c2C(C)C)cc(C)n1 [Example 22] was 7.30

Reported pEC50 for Cc1cc(-c2[nH]c3cc(-c4nc(C5CCNCC5)no4)sc3c2C(C)C)cc(C)n1 [Example 55] was 8.12
